- Tgt: human orexin-2 receptor (Homo sapiens (Human), UniProt O43614)
- Sequence (O43614 whole entry): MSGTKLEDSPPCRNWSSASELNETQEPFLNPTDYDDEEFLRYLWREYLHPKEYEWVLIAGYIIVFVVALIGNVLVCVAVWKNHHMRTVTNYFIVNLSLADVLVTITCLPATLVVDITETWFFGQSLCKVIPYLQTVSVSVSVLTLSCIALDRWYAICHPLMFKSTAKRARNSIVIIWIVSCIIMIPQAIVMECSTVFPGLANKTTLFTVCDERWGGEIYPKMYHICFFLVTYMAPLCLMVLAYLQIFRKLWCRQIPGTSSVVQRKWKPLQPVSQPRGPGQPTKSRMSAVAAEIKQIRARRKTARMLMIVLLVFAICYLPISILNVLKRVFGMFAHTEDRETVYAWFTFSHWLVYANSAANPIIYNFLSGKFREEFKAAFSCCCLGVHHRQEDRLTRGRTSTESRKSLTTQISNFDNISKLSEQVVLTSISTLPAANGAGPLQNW
- Assay method text: In vitro assay: intracellular calcium measurements (FLIPR), antagonistic activity
- Test context: CHO cells expressing human orexin-2 receptor, orexin-A agonist, geometric mean, read-out: IC50 Ox2
pIC50: −log10 of the molar value.
Measured property: pIC50

Previously resolved entries follow.
{"Compound": "CSc1ccc2nc([C@@H]3CCCN3C(=O)c3c(C)cccc3-n3nccn3)[nH]c2c1", "pIC50": 7.68}
{"Compound": "Cc1nc(C(=O)N2CCCC2c2nc3c(C(F)(F)F)cccc3[nH]2)c(-c2ccccc2)s1 (stereo not shown)", "pIC50": 6.91}
{"Compound": "C[C@@]1(c2nc3c(F)c(F)ccc3[nH]2)CCCN1C(=O)c1cc(Cl)ccc1-n1nccn1", "pIC50": 6.29}
{"Compound": "C[C@@]1(c2nc3cc(F)c(Br)cc3[nH]2)CCCN1C(=O)c1cc(Cl)ccc1-n1nccn1", "pIC50": 7.21}
{"Compound": "CO[C@H]1CN(C(=O)c2cc(Cl)ccc2-n2nccn2)C(C)(c2nc3c(C)c(Cl)ccc3[nH]2)C1 (stereo partly shown)", "pIC50": 8.22}
{"Compound": "Cc1ccc(-c2ccccn2)c(C(=O)N2CCC[C@@]2(C)c2nc3c(C)c(Cl)ccc3[nH]2)c1", "pIC50": 7.96}
{"Compound": "CSc1cccc2nc([C@@H]3CCCN3C(=O)c3cncnc3-c3ccc(C)cc3)[nH]c12", "pIC50": 6.39}
{"Compound": "Cc1ccc(-n2nccn2)c(C(=O)N2CCC[C@@]2(C)c2nc3cc(C)c(C)cc3[nH]2)n1", "pIC50": 6.89}

1: Cc1ccc(-c2sc(C)nc2C(=O)N2CC[C@H](C)[C@H]2c2nc3cc(C(F)(F)F)ccc3[nH]2)cc1
2: CSc1ccc2nc([C@@H]3CCCN3C(=O)c3cc(C)ccc3-n3nccn3)[nH]c2c1
q: Which has the higher pIC50, 1 or 2 ? Field: selected label. Fill in the label of the entry you choose.
a: 2

1: C=C1C[C@@H](c2nc3cc(C(C)(C)C)ccc3[nH]2)N(C(=O)c2cc(C)ccc2-n2cccn2)C1
2: COc1cccc(-c2nc(C)ncc2C(=O)N2CCC[C@H]2c2nc3cccc(SC)c3[nH]2)c1
3: C=C1C[C@@H](c2nc3cccc(C)c3[nH]2)N(C(=O)c2nc(C)sc2-c2cccc(Br)c2)C1
4: COc1cc2nc([C@@H]3[C@@H](C)CCN3C(=O)c3c(F)cccc3-n3nccn3)[nH]c2cc1OC
5: COc1ccc2[nH]c([C@@H]3CCCN3C(=O)c3nc(C)ccc3-n3nccn3)nc2c1
q: Rank items: key pIC50, increasing. Form field (ranking): labels in requested order.
a: 4, 2, 5, 1, 3
(4: 5.95, 2: 6.93, 5: 7.27, 1: 7.72, 3: 9.10)
